Listed here are compounds together with their documented Surinam Grass plant response rating.
# System: Surinam grass
# PROCEDURE_DETAILS: Test B pre-/postemergence herbicide test
# Assay type: in vivo, Urochloa decumbens
# CONDITION_LABEL: Postemergence, 500 g ai/ha; scale 0 (no effect) to 100 (complete control)

INSERT INTO results (line_notation, result) VALUES
  ('C=CCN(CC=C)C(=O)c1cccc(NC(=O)c2nn(C(C)C)nc2CC)c1', 10),
  ('CCNC(=O)c1cccc(NC(=O)c2nn(C(C)C)nc2C)c1', 10),
  ('C=CCOc1cccc(NC(=O)c2cc(C(C)(C)C)nn2CC)c1', 30),
  ('CCc1nn(C(C)(C)C)nc1C(=O)Nc1cc(C(=O)N2CCCCC2)ccc1F', 40);

From here, focus on the item given below.
The recorded Surinam Grass plant response rating with Surinam grass for `C=CCN(CC=C)C(=O)c1ccc(F)c(NC(=O)c2nn(C(C)(C)C)nc2CC)c1` was 0
